Taken from patent US6818663B2.

# System: HCT116, a colorectal carcinoma cell line
# METHOD: Tetrazolium dye proliferation assay (MTT assay)
# Type: cell-based
# CONDITION DETAILS: Homo sapiens, HCT-116, HCT116 cells, inhibition of cell proliferation
pIC50: −log10 of the molar value.
MEASURED QUANTITY: pIC50

Record excerpt, results attached:
CCc1cccc(C(=O)c2sc(Nc3ccc(OC4CCCN(CC)C4)cc3)nc2N)c1 (stereo not shown)	5.83
CN(C)CCOc1ccc(Nc2nc(N)c(C(=O)c3cccc(C4CC4)c3)s2)cc1	5.98
CCc1cc(C(=O)c2sc(Nc3ccc(OC4CCCN(CC)C4)cc3)nc2N)ccc1F (stereo not shown)	5.37

A: CN(C)CCOc1ccc(Nc2nc(N)c(C(=O)c3ccc4c(c3)OCCO4)s2)cc1
B: CCN1CCC(Oc2ccc(Nc3nc(N)c(C(=O)c4cccc(F)c4)s3)cc2)C1 (stereo not shown)
Input: Between A and B , whose recorded pIC50 is greater? # answer = label of selected item
Output: B
(B: 6.07, A: 5.43)

A: CCNCCOc1ccc(Nc2nc(N)c(C(=O)c3ccc4c(c3)OCO4)s2)cc1
B: Nc1nc(Nc2ccc(OCCN3CCCC3)cc2)sc1C(=O)c1ccc(O)c(F)c1
C: CCCc1cc(C(=O)c2sc(Nc3ccc(OC[C@@H]4CCCN4C)cc3)nc2N)ccc1O [Example 115, Acetate]
D: C[C@H](COc1ccc(Nc2nc(N)c(C(=O)c3cccc(F)c3)s2)cc1)N(C)C
Input: Ordering criterion: pIC50; begin with the maximum. Reply with the item labels sorted in the order that was asked for.
Output: C, D, B, A
(C: 6.77, D: 6.46, B: 5.79, A: 5.52)
